experiment: in vitro; settings: human, hela cells, % viability
Some molecules, each annotated with its measured viability at 28.5 h, 10 µM.
EXPERIMENTAL ENDPOINT: viability at 28.5 h, 10 µM

- Cc1cc(C(=O)N2CCc3c(sc4ncnc(N)c34)C2)sc1C: 99.4%
- COCCn1c(=O)[nH]c2ncc(-c3ccsc3)nc21: 108%
- CC1(C)C2C(=O)C(c3ccccn3)=C(N)N2C(C)(C)C1(C)C (stereo not shown): 110%
- COc1ccccc1N(CC(O)Cn1nc(C)cc1C)S(=O)(=O)c1ccccc1 (stereo not shown): 100%
- O=C(O)c1ccc(S(=O)(=O)NCc2ccc3c(c2)OCO3)cc1: 97%
- CN1CCC(C(=O)Nc2cccc(Cn3cccn3)c2)C1 (stereo not shown): 100%
- Cc1ccc(C2(O)CC3CCC(C2)N3C(=O)C2CCC2)cc1 (stereo not shown): 99.2%
- O=C(CSc1nnc2sc3ccccc3n12)N1c2ccccc2Sc2ccccc21: 89%
- O=C1CC(c2ccccc2)c2snc(C(=O)O)c2N1 (stereo not shown): 90.5%
- O=C(c1ccc(F)cc1)C1CCN(Cc2ncc[nH]2)CC1: 90.1%

----------
assay: in vitro; conditions: human, hela cells, % viability
Note to self: use 1 (yes) only for viability at 28.5 h, 10 µM readings below 90%; a reading exactly at 90% still gets 0 (no).

* O=C(OCc1ccccc1)N1CCC(C2OCc3cc(-c4ccc(C(=O)N5CCCCC5)cc4)ccc3O2)CC1 (stereo not shown) | 0 (no)
* Cc1ccc(CNC(=O)C2CCN(S(=O)(=O)N3CCOCC3)CC2)cc1 | 0 (no)
* CC(=O)Nc1nnc(SCC(=O)N2CCN(c3ccc(Cl)cc3)CC2)s1 | 1 (yes)
* CCCNC(=O)c1ccc(C)c(NC(=O)NC2CCOC2)c1 (stereo not shown) | 0 (no)
* CCOC(=O)c1cnn(C2CCCN(Cc3cccc(O)c3)C2)c1 (stereo not shown) | 0 (no)
* CCCCNc1nnc(-c2nn(C)cc2Cl)s1 | 1 (yes)
* CCS(=O)(=O)N1CCC2(C=Cc3cc(F)ccc3O2)CC1 | 0 (no)

----------
Some compounds, each annotated with its measured viability at 28.5 h, 10 µM.
experiment: in vitro; settings: human, hela cells, % viability
EXPERIMENTAL ENDPOINT: viability at 28.5 h, 10 µM (%)

- S=c1[nH]cnc2c1[nH]c1ccc(Br)cc12 [CBK288487]: 102
- Clc1ccc(-c2csc3ncnc(SCc4ccco4)c23)cc1 [CBK265972]: 90.5
- CN(C)CC1CCCCN1C(=O)C1C2CCCCC21 (centres unmarked) [CBK282087]: 97.7
- O=S(=O)(c1cc(Cl)sc1Cl)N1CCCCC1CO (centres unmarked) [CBK051422]: 87.2
- CC(=O)Nc1sc2c(c1-c1nc3ccccc3s1)CCN(C(C)C)C2 [CBK211288]: 3.98
- CCCN1CCN(CC(=O)NCc2ccco2)CC1 [CBK270300]: 84.2
- CCN1CCCC1CN(Cc1cccs1)CC1CCOC1 (centres unmarked) [CBK282602]: 97.1
- Cc1cc(C)cc(-c2nnc(SCCC(=O)NC(N)=O)o2)c1 [CBK295164]: 107
- O=C(c1cccnc1N1CCCCC1)N1CCCCC1 [CBK025882]: 109
- CS(=O)(=O)NCCCNc1ccc(C(F)(F)F)cc1[N+](=O)[O-] [CBK263741]: 73.1
- Cc1ccc2nc(N3CCCC(O)C3)c(CN3CCN(C)CC3)cc2c1 (centres unmarked) [CBK307710]: 100
- CC(=O)c1ccc(-c2cnc(Nc3ccc(N4CCOCC4)cc3)c3nccn23)s1 [CBK091231]: 95.3
- Brc1ccc(Nc2ncnc3nc[nH]c23)cc1 [CBK287386]: 105
- Cc1ccc2c(c1)C(=O)CC1(CCN(C(=O)OC(C)(C)C)CC1)O2 [CBK283599]: 98
- CCN(CC)c1ccc(NC(=O)COc2ccccc2)cc1 [CBK096048]: 91.9
- CCOc1cc(NC2CCN(C(=O)C3(CCOC)CC3)CC2)ncn1 [CBK304434]: 98.2
- O=C1NCC2(CCN(Cc3ccccc3)CC2)Oc2ccccc21 [CBK285323]: 91.8
- COc1ccc([C@H]2CN(Cc3ccccc3)C[C@@H]2NC(=O)CCc2ccco2)cc1 [CBK286477]: 87.6
- CSCCN1CCC2(CC1)CN(CCO)c1ccccc12 [CBK126771]: 94.6
- COc1cc2c(cc1NC(=O)CN(C)S(=O)(=O)c1ccc(Cl)cc1)oc1ccccc12 [CBK267404]: 93.6
